Experiment: drug combination growth inhibition, ovarian cancer – cell-based, oncology-focused library, rucaparib conditional, profiling panel (AID 1508598)
Conditions: patient-derived ovarian cancer cells, CellTiter-Glo viability, 144 h; at 0.000305 µM; OCI-C5x cells; with rucaparib 10 µM; stronger effect = lower value; 100% = cells with rucaparib alone
measurement.kind: viability (%)
Numbers only, in %.

Worked set:
{"columns": ["record.smiles", "output.unit", "assay.result"],
 "data": [
  ["Cc1cc(NC(=O)c2cccc(NC(=O)/C=C/CN(C)C)c2)ccc1Nc1nccc(-c2cccnc2)n1", "%", 118],
  ["CN(C)CCSSCCNC(=O)C1CCN(C(=O)CSc2ccc(Cl)cc2)CC1", "%", 118]
]}

// for each compound below, give its viability
1. CO[C@H]1C[C@H]2CC[C@@H](C)[C@@](O)(O2)C(=O)C(=O)N2CCCC[C@H]2C(=O)O[C@H]([C@H](C)C[C@@H]2CC[C@H](OP(C)(C)=O)[C@H](OC)C2)CC(=O)[C@H](C)/C=C(\C)[C@@H](O)[C@@H](OC)C(=O)[C@H](C)C[C@H](C)/C=C/C=C/C=C/1C
2. CC[C@]1(O)C[C@@H]2CN(CCc3c([nH]c4ccccc34)[C@@](C(=O)OC)(c3cc4c(cc3OC)N(C=O)[C@H]3[C@@](O)(C(=O)OC)[C@H](OC(C)=O)[C@]5(CC)C=CCN6CC[C@@]43[C@@H]65)C2)C1
3. Cc1cc(C)c(S(=O)(=O)n2cc(C)cc2C)c(C)c1
4. CC(C)NCCCn1c(Sc2cc3c(cc2I)OCO3)nc2c(N)ncnc21

1: 115; 2: 113; 3: 109; 4: 125

Assign viability to the following record: O=C(NCC1(c2nc(-c3ccccc3)cs2)CCOCC1)c1cccc(-c2noc(C(F)(F)F)n2)c1
124

---

Assay: MELAS cybrid and Rieske KO viability enhancers – cell-based, MELAS cybrids, Rieske KO mouse fibroblasts, CellTiter-Glo, primary screen (AID 1508586);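 also: z relative to plate mean and SD of compound and empty wells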
Details: MELAS cybrid survival, low glucose, CellTiter-Glo 48 h; stronger effect = higher value
Entry flag: met if z-score reaches -0.3; not met if it does not.

Record S=C=Nc1cccc(NC(=S)NCCCCNC(=S)Nc2cccc(N=C=S)c2)c1 ; criterion: z-score no lower than -0.3. Met?
not met

Record O=C(O)c1ccc(-c2ccccc2C(F)(F)F)o1 ; criterion: z-score no lower than -0.3. Met?
met

Record CN(C)C(=O)C(O)C(Cc1ccccc1)NC(=O)c1cc2cc(Cl)ccc2[nH]1 (stereo not given) ; criterion: z-score no lower than -0.3. Met?
not met

Record Nc1nccc2c1ncn2C1C=C(CO)C(O)C1O (stereo not given) ; criterion: z-score no lower than -0.3. Met?
not met

Record CC[C@@H]1NC(=O)[C@H]2CN(C(=O)Oc3cccc4ccccc34)CCN2C1=O ; criterion: z-score no lower than -0.3. Met?
met

Record Cc1cc(C)c(S(=O)(=O)n2cc(C)cc2C)c(C)c1 ; criterion: z-score no lower than -0.3. Met?
not met

---

Assay: MELAS cybrid and Rieske KO viability enhancers – cell-based, MELAS cybrids, Rieske KO mouse fibroblasts, CellTiter-Glo, primary screen (AID 1508586);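 also: z relative to plate mean and SD of compound and empty wells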
Conditions: MELAS cybrid survival, low glucose, CellTiter-Glo 48 h; stronger effect = higher value
measurement.kind: z-score
Give bare numbers.

Worked set:
{"columns": ["compound", "z-score"],
 "data": [
  ["CC(O)[C@H]1C(=O)N2C(C(=O)OCOC(=O)C(C)(C)C)=C(SC3CN(C4=NCCS4)C3)C(C)[C@@H]12 (some centres undefined)", -0.198],
  ["CC(C)C(=O)N1CCC(CNC(=O)c2ccno2)CC1", 0.208],
  ["CC(C)CC(CC(=O)NO)C(=O)NC(Cc1ccc2ccccc2c1)C(=O)NC(C)C(=O)NCCN (centres undefined)", -0.492],
  ["C[C@@H]1C[C@H]2[C@@H]3C[C@H](F)C4=CC(=O)C=C[C@]4(C)[C@@]3(Cl)[C@@H](O)C[C@]2(C)[C@H]1C(=O)COC(=O)C(C)(C)C", -0.991],
  ["CC(=O)O[C@]1(C(C)=O)CC[C@H]2[C@@H]3C=C(C)C4=CC(=O)CC[C@@H]4[C@H]3CC[C@@]21C", -0.763]
]}

// for each compound below, give its z-score
1. N=c1ccn2c(n1)OC1C(O)C(CO)OC12 (centres undefined)
2. COc1ccc(CN2CCN(c3cc(C)nc(N)n3)CC2=O)cc1
3. CC(Cc1cc2c(c(C(N)=O)c1)N(CCCO)CC2)NCCOc1ccccc1OCC(F)(F)F (centres undefined)
4. CCOC(=O)C1=C(C)NC(C)=C(C(=O)OCC)C1c1ccccc1C=CC(=O)OC(C)(C)C
5. COc1ccc2cc([C@@H](C)C(=O)O)ccc2c1
6. COCCOC(=O)C1=C(C)NC(C)=C(C(=O)OCC=Cc2ccccc2)C1c1cccc([N+](=O)[O-])c1 (centres undefined)
7. O=C(Cn1nnc(-c2ccccc2)n1)Nc1ccnn1Cc1ccccc1
8. CCN(CC)CCN(Cc1ccc(-c2ccc(C(F)(F)F)cc2)cc1)C(=O)Cn1c(SCc2ccc(F)cc2)nc(=O)c2c1CCC2

1: 0.074; 2: 0.162; 3: -0.42; 4: -0.107; 5: -0.0303; 6: -0.669; 7: -0.218; 8: -0.397

// for each compound below, give its z-score
1. CN(C)Cc1cn(CC2CCN(C(=O)c3ccc4c(c3)OCO4)CC2)nn1
2. C[C@H]1CC[C@H]2[C@@H](C)C(OC(=O)CCC(=O)O)O[C@H]3O[C@@]4(C)CC[C@@H]1[C@]32OO4 (some centres undefined)
3. COc1cc(CN2CC(=O)N(CC3CCOCC3)CC(OCc3ccccn3)C2)cc2c1OCO2 (centres undefined)
4. CNCC[C@@H](Oc1cccc2ccccc12)c1cccs1
5. Cc1nn(C)cc1-c1ccnc(NC2CCOC(C)(C)C2)n1 (centres undefined)
6. COc1cccc2ccc(-c3coc4ccccc4c3=O)nc12

[-0.121, -0.298, -0.369, -0.177, -0.0523, -0.341]

Recorded values, source PubChem BioAssay.
